# Test system: Staphylococcus aureus ATCC 6538 P
# test_protocol: Bacteriostatic power in solid medium (MIC), aerobic Gram positive
# Format: cell-based
# measurement_parameters: Staphylococcus aureus, ATCC6538, read-out: minimum inhibiting concentration
# MIC per entry

Answered examples (3):
| compound | MIC |
| --- | --- |
| CC[C@H]1OC(=O)[C@H](C)[C@@H](O[C@H]2C[C@@](C)(OC)[C@@H](O)[C@H](C)O2)[C@H](C)[C@@H](O[C@@H]2O[C@H](C)C[C@H](N(C)C)[C@H]2O)[C@](C)(O)C[C@@H](C)C(=O)[C@H](C)[C@@H](O)[C@]1(C)O [Erythromycin A, reference compound] | 0.049 mg/L |
| CO[C@H]1C[C@H](O[C@H]2[C@H](C)[C@@H](O[C@@H]3O[C@H](C)C[C@H](N(C)C)[C@H]3O)[C@](C)(O)C[C@@H](C)C(=O)[C@H](C)[C@@H](O)[C@@H](C)[C@@H](CCO)OC(=O)[C@@H]2C)O[C@@H](C)[C@@H]1O [P 15150] | 3.12 mg/L |
| CC[C@H]1OC(=O)[C@H](C)[C@@H](O[C@H]2C[C@H](OC)[C@@H](O)[C@H](C)O2)[C@H](C)[C@@H](O[C@@H]2O[C@H](C)C[C@H](N(C)C)[C@H]2O)[C@](C)(O)C[C@](C)(O)C(=O)[C@H](C)[C@@H](O)[C@H]1C [P 15148] | 1.56 mg/L |

Switching to the query record.
Exercise: Requested field: MIC. Item: CC[C@H]1OC(=O)[C@H](C)[C@@H](O[C@H]2C[C@H](OC)[C@@H](O)[C@H](C)O2)[C@H](C)[C@@H](O[C@@H]2O[C@H](C)C[C@H](N(C)C)[C@H]2O)[C@](C)(O)C[C@@H](C)C(=O)[C@H](C)[C@@H](O)[C@H]1C [P 15149]
Solution: 0.78 mg/L

----------
# Test system: Streptococcus pneumonieae LRP 52
# test_protocol: Bacteriostatic power in solid medium (MIC), aerobic Gram positive
# Type: cell-based
# measurement_parameters: Streptococcus, LRP52, read-out: minimum inhibiting concentration
# MIC per entry
Dear colleague, please return just the value in µg/mL, with no unit written.

Answered examples (3):
| compound | readout_number |
| --- | --- |
| CC[C@H]1OC(=O)[C@H](C)[C@@H](O[C@H]2C[C@H](OC)[C@@H](O)[C@H](C)O2)[C@H](C)[C@@H](O[C@@H]2O[C@H](C)C[C@H](N(C)C)[C@H]2O)[C@](C)(O)C[C@](C)(O)C(=O)[C@H](C)[C@@H](O)[C@H]1C | 0.195 |
| CC[C@H]1OC(=O)[C@H](C)[C@@H](O[C@H]2C[C@H](OC)[C@@H](O)[C@H](C)O2)[C@H](C)[C@@H](O[C@@H]2O[C@H](C)C[C@H](N(C)C)[C@H]2O)[C@](C)(O)C[C@@H](C)C(=O)[C@H](C)[C@@H](O)[C@H]1C | 0.097 |
| CC[C@H]1OC(=O)[C@H](C)[C@@H](O[C@H]2C[C@@](C)(OC)[C@@H](O)[C@H](C)O2)[C@H](C)[C@@H](O[C@@H]2O[C@H](C)C[C@H](N(C)C)[C@H]2O)[C@](C)(O)C[C@@H](C)C(=O)[C@H](C)[C@@H](O)[C@]1(C)O [Erythromycin A, reference compound] | 0.012 |

Exercise: Requested field: MIC. Item: CO[C@H]1C[C@H](O[C@H]2[C@H](C)[C@@H](O[C@@H]3O[C@H](C)C[C@H](N(C)C)[C@H]3O)[C@](C)(O)C[C@@H](C)C(=O)[C@H](C)[C@@H](O)[C@@H](C)[C@@H](CCO)OC(=O)[C@@H]2C)O[C@@H](C)[C@@H]1O
Solution: 0.195
